- method-summary: in vivo
- protocol-conditions: athymic nude, mouse, plasma, oral, 100 mg/kg
reported-metric: Cmax (nM)
Kindly answer with a numeric value in nM, unit omitted.

Which Cmax is reported for this compound? CO[C@@H]1[C@H](N(C)C(=O)c2ccccc2)C[C@H]2O[C@]1(C)n1c3ccccc3c3c4c(c5c6ccccc6n2c5c31)C(=O)NC4 [PKC412] 2910

###

- method-summary: in vivo
- protocol-conditions: athymic nude, mouse, plasma, oral, 100 mg/kg
reported-metric: concentration at 24 h (nM)
Write it as a number; the unit nM goes unstated.

# get_value(readout='concentration at 24 h', item= CO[C@@H]1[C@H](N(C)C(=O)c2ccccc2)C[C@H]2O[C@]1(C)n1c3ccccc3c3c4c(c5c6ccccc6n2c5c31)C(=O)NC4 [PKC412] ) 659
